protocol: Human HepG2 cell viability assay in 384 well format
Format: toxicity, cell-based
Design: dose 125 nL, time 70.5 hour; concentration not given beside the values
condition-info: HepG2 cells, read-out: Inhibition
quantity-kind: cytotoxicity at 70.5 h
Answer format: number, then unit.

[
  {
    "compound": "Cc1cc(-c2ccccc2C(=O)O)nc(C2CCCN(C(C)C)C2)n1 (stereo unspecified)",
    "test-value": "-3.8%"
  },
  {
    "compound": "CCc1cc(NCc2cc3n(n2)CCCN(S(C)(=O)=O)C3)nc(C)n1",
    "test-value": "-6.87%"
  }
]

Query (compound): CC(C)[C@H](NC(=O)c1cccc(CCC(C)(C)O)c1)C(N)=O ; field requested: cytotoxicity at 70.5 h
-2.04%

Could you do the same for CC(=O)N1CCN(C(=O)NC(C)C)CC2(CC(=O)N(C)C2)C1 (stereo unspecified) , please?
-13.5%

Could you do the same for COC(=O)c1ccc(C2CC(=O)Nc3c2cnn3C)cc1 (stereo unspecified) , please?
3.26%

Could you do the same for CCNC(=O)N1CCN(Cc2nc3ccccc3[nH]2)[C@@H]2CS(=O)(=O)C[C@@H]21 , please?
-9.34%

Could you do the same for O=C(NCCN1CCCCC1)c1scnc1Cl , please?
-8.74%

Could you do the same for CCc1cnc2c(c1Nc1ccccc1OC)c(=O)n(C)c(=O)n2C , please?
5.02%

Could you do the same for Cc1nc(CN2CCCC2C(=O)OCc2ccccc2)oc1C (stereo unspecified) , please?
-10.3%

Could you do the same for CCn1cnnc1C1CCN(C(=O)c2ccoc2C)CC1 , please?
11.9%

Could you do the same for Cc1cc(NC(=O)CN2CCCC(Cn3cncn3)C2)on1 (stereo unspecified) , please?
-3%
